Cited source: PubChem BioAssay AID1208

Tested on: rat chronic carcinogenicity bioassay, TD50
method.description: DSSTox (CPDBAS) Carcinogenic Potency Database Summary Rat Bioassay Results
condition.info: TD50_Rat_Note: positive test results only by intraperitoneal or intravenous injection; TD50 is harmonic mean of more than one positive; TargetSites_Rat_Female: peritoneal cavity; stronger effect = lower value
From the text: The Carcinogenic Potency Database (CPDB) is a unique and widely used international resource of the results of over 6500 chronic, long-term animal cancer tests on over 1500 chemical substances. The CPDB provides easy access to the bioassay literature, with qualitative and quantitative analyses of both positive and negative experiments that have been published over the past 50 years in the general literature and by the National Cancer Institute/National Toxicology Program. […]
*1 amine or outer side, *2 acyl side, *3 side chain or, on linkers, in order; H or OH if unused. Where a SMILES comes first, the peptide text is derived from it. Bridges are numbered along the chain shown (N, C = ends). Roman numbers before positions name the chains, in order. [ ]: non-standard residue; d: D form. Actinocin(9to1) = Cc1c2oc3c(C)ccc(C(=O)[*:1])c3nc-2c(C(=O)[*:2])c(N)c1=O; NMeV = CN[C@H](C(=O)O)C(C)C; Sar = CNCC(=O)O
test.readout: Potency

## Input Given the entry "CO[C@@]12[C@H](COC(N)=O)C3=C(C(=O)C(C)=C(N)C3=O)N1C[C@@H]1N[C@@H]12" , report its measured Potency.
## Output 0.00102 mg/kg/day

## Input Query CC(COc1ccccc1)N(CCCl)Cc1ccccc1 (stereo not given) next
## Output 1.09 mg/kg/day

## Input Another compound to look at: "N[C@@H](Cc1ccc(N(CCCl)CCCl)cc1)C(=O)O"
## Output 0.0938 mg/kg/day

## Input Field entry: Cc1c2oc3c(C)ccc(C(=O)N[C@@H]4C(=O)N[C@H](C(C)C)C(=O)N5CCC[C@H]5C(=O)N(C)CC(=O)N(C)[C@@H](C(C)C)C(=O)O[C@@H]4C)c3nc-2c(C(=O)N[C@@H]2C(=O)N[C@H](C(C)C)C(=O)N3CCC[C@H]3C(=O)N(C)CC(=O)N(C)[C@@H](C(C)C)C(=O)O[C@@H]2C)c(N)c1=O (I: T[dV]P[Sar][NMeV] / II: T[dV]P[Sar][NMeV]; ester I:1-I:C, II:1-II:C; linker I:N-II:N via Actinocin(9to1))
## Output 0.00111 mg/kg/day

## Input Another compound to look at: "O=NN(CCCl)C(=O)N[C@@H]1[C@@H](O)[C@H](O)[C@@H](CO)O[C@@H]1O"
## Output 0.0375 mg/kg/day

###

Test system: rat chronic carcinogenicity bioassay, TD50
method.description: DSSTox (CPDBAS) Carcinogenic Potency Database Summary Rat Bioassay Results
condition.info: TargetSites_Rat_BothSexes: all tumor bearing animals; stronger effect = lower value
Would you kindly list Potency for each of these compounds?

## Input Please provide the recorded Potency for "CCOC(N)=O" , tested on rat chronic carcinogenicity bioassay, TD50.
## Output 41.3 mg/kg/day

## Input Would you kindly repeat that for "O=NN1CCCCO1" ?
## Output 24.3 mg/kg/day

## Input And for "O=S(=O)(O)c1cc(S(=O)(=O)O)c2c(N=Nc3ccc(S(=O)(=O)O)c4ccccc34)c(O)ccc2c1" ?
## Output 24500 mg/kg/day

## Input And what about the compound O=NN1CCC(O)C1 (configuration not stated) ?
## Output 7.65 mg/kg/day

## Input Would you mind doing "O=NN1CC=CCO1" as well?
## Output 90.6 mg/kg/day

## Input Another compound to check: "S=C([S-])NCCNC(=S)[S-].[Mn+2]"
## Output 157 mg/kg/day

## Input Subsequent entry: "CNC(=O)Oc1cccc2ccccc12"
## Output 14.1 mg/kg/day
